Assay system: MIF (Homo sapiens)
Construct: purchased Abcam ab51096
Assay: ITC assay, binding affinity to MIF
Cond: 25 °C, pH 7.5, mean ± SD
pKd: −log10 of the molar value.

Structure	Assay system	pKd
CCc1ccn2cc(-c3cc(-c4ccccc4)no3)nc2c1	MIF (Homo sapiens)	6.49

----------
Assay system: MIF (Homo sapiens, UniProt P14174)
Construct: purchased Abcam ab51096
Sequence (P14174 2-115 limits assumed): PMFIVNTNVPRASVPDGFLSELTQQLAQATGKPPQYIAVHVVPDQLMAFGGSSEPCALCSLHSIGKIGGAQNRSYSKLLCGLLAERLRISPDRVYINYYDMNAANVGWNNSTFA
Assay: MST assay, binding affinity to MIF
Cond: mean ± SD
pKd: −log10 of the molar value.
Quick reference for pKd among some compounds
Measured attribute: pKd

Structure	Measured attribute	Result value
Cc1nn(-c2ccccc2)nc1-c1nnc(-c2ccc(C(F)(F)F)cc2)o1	pKd	6.14
c1ccc(-c2cc(-c3cn4cccnc4n3)on2)cc1	pKd	6.27
Cc1nn(-c2ccccc2)nc1-c1nnc(-c2ccc(Cl)cc2)o1	pKd	6.12
Cc1ccn2cc(-c3cc(-c4ccccc4)no3)nc2c1	pKd	6.34
Cc1nn(-c2ccccc2)nc1-c1nnc(-c2ccccc2)o1	pKd	6.09
CCc1ccn2cc(-c3cc(-c4ccccc4)no3)nc2c1	pKd	6.54
